# test.protocol: in vitro
# condition.label: mouse
Counter-ions that a name gives are not always drawn.
value.type: viability at 48 h, 50 μM

Enquiry: Check the records and state viability at 48 h, 50 μM for CC(=O)N(O)CCCCCNC(=O)CCC(=O)N(O)CCCCCNC(=O)CCC(=O)N(O)CCCCCN [DFO, Deferoxamine mesylate]
Return: < 50%
